- system_tested: human plasma kallikrein (Homo sapiens)
- Construct: purchased Enzyme Research Laboratories HPKa 1303
- protocol_details: Enzyme inhibition assay (fluorogenic substrate H-Pro-Phe-Arg-AMC)
- Assay type: biochemical
- particulars: Kallikrein inhibitory activity; 1 nM activated human kallikrein, 500 μM H-Pro-Phe-Arg-AMC, 1 hour room temperature; read-out: Avg. IC50
Numbered stars: 1 amine (or outer) side, 2 acyl side, 3 side chain; on linkers, the order of the positions; unused ones are H or OH. Bridge positions count the residues as written; N and C are the ends. Square brackets hold non-standard residues; d marks the D form. Peptide text beside a SMILES is read from it. X9 = O=C(C[C@H](C(=O)[*:2])C1CCCCC1)[C@@H]1CCCN1[*:1]; mXylylene = c1cc(C[*:1])cc(C[*:2])c1; Tle = CC(C)(C)[C@H](N)C(=O)O; Mpa = O=C(O)CCS
observable: log10(IC50) (log10 of the value in µM)
Log10 applied to IC50; unit prior to transform: µM.

Q: Item under review: CC(C)(C)[C@H](NC(=O)[C@H](CCCNC(=N)N)NC(=O)[C@@H]1CSCc2cccc(c2)CSCCC(=O)N2CCC[C@H]2C(=O)C[C@@H](C2CCCCC2)C(=O)N1)C(N)=O [Compound R2247] ([Mpa][X9]CR[Tle]-NH2; linker 1-3 via mXylylene) . Reported log10(IC50)?
Result: -0.32

====

Numbered stars: 1 amine (or outer) side, 2 acyl side, 3 side chain; on linkers, the order of the positions; unused ones are H or OH. Bridge positions count the residues as written; N and C are the ends. Square brackets hold non-standard residues; d marks the D form. Peptide text beside a SMILES is read from it. mXylylene = c1cc(C[*:1])cc(C[*:2])c1; NMeS = CN[C@@H](CO)C(=O)O
The reader will find IC50 measurements below, all made with tissue kallikrein KLK13 (Homo sapiens, UniProt Q9UKR3).
Sequence (Q9UKR3 17-277): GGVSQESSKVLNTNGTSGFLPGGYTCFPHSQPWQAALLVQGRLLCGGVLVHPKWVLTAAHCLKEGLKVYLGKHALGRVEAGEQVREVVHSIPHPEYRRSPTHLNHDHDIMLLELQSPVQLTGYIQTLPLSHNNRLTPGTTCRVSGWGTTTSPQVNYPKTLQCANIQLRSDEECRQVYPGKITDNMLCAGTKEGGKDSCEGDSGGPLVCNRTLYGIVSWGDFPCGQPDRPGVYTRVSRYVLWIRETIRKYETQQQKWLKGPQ

Example entries and their recorded answers appear below.
Q: Item under review: CC[C@H](C)[C@@H]1NC(=O)[C@H](CO)NC(=O)[C@H](CCC(=O)O)NC(=O)[C@@H](NC(=O)[C@@H](N)CCSC)CSCc2cccc(c2)CSC[C@@H](C(=O)N[C@@H](CCCNC(=N)N)C(=O)N[C@H](C(N)=O)C(C)C)NC1=O [Compound R2006, [mXylyl(2,6)]MCESICRV-NH2] (H-MCESICRV-NH2; linker 2-6 via mXylylene) . Reported IC50?
Result: > 100 µM

Q: Item under review: CC[C@H](C)[C@@H]1NC(=O)[C@H](CO)N(C)C(=O)[C@H](CCC(=O)O)NC(=O)[C@@H](NC(=O)[C@@H](N)CCSC)CSCc2cccc(c2)CSC[C@@H](C(=O)N[C@@H](CCCNC(=N)N)C(=O)N[C@H](C(N)=O)C(C)C)NC1=O [Compound R2019, [mXylyl(2,6)]MCE-nMeS-ICRV-NH2] (H-MCE[NMeS]ICRV-NH2; linker 2-6 via mXylylene; N-terminus assumed) . Reported IC50?
Result: > 16.4 µM

---
Q: Item under review: CC[C@H](C)[C@@H]1NC(=O)[C@H](CO)NC(=O)[C@H](CCC(=O)O)NC(=O)[C@@H](NC(C)=O)CSCc2cccc(c2)CSC[C@@H](C(=O)N[C@@H](CCCNC(=N)N)C(=O)N[C@H](C(N)=O)C(C)C)NC1=O [Compound R2023, [mXylyl(1,5)]Ac-CESICRV-NH2] (Ac-CESICRV-NH2; linker 1-5 via mXylylene) . Reported IC50?
Result: > 100 µM

====

- system_tested: human plasma kallikrein (Homo sapiens)
- Construct: purchased Enzyme Research Laboratories HPKa 1303
- protocol_details: Enzyme inhibition assay (fluorogenic substrate H-Pro-Phe-Arg-AMC)
- Format: biochemical
- particulars: Kallikrein inhibitory activity; 1 nM activated human kallikrein, 500 μM H-Pro-Phe-Arg-AMC, 1 hour room temperature; read-out: Avg. IC50
pIC50: −log10 of the molar value. Numbered stars: 1 amine (or outer) side, 2 acyl side, 3 side chain; on linkers, the order of the positions; unused ones are H or OH. Bridge positions count the residues as written; N and C are the ends. Square brackets hold non-standard residues; d marks the D form. Peptide text beside a SMILES is read from it. mXylylene = c1cc(C[*:1])cc(C[*:2])c1; Chg = N[C@H](C(=O)O)C1CCCCC1; Phg = N[C@H](C(=O)O)c1ccccc1; Tle = CC(C)(C)[C@H](N)C(=O)O; Ac5c = NC1(C(=O)O)CCCC1; Dab = NCC[C@H](N)C(=O)O; Mpa = O=C(O)CCS
Consider the following molecules and their measured pIC50 readings.

Q: Hi! What's the reported pIC50 for CC(C)(C)[C@H](NC(=O)[C@H](CCN)NC(=O)[C@@H]1CSCc2cccc(c2)CSCCC(=O)N2CCC[C@H]2C(=O)N[C@@H](c2ccccc2)C(=O)N1)C(N)=O [Compound R2211] ([Mpa]P[Phg]C[Dab][Tle]-NH2; linker 1-4 via mXylylene) on human plasma kallikrein (Homo sapiens)?
Result: < 4.12

Q: Hi! What's the reported pIC50 for CC(=O)N[C@@H](CS)C(=O)N[C@@H](CC(N)=O)C(=O)N[C@@H](Cc1ccc(O)cc1)C(=O)N[C@@H](Cc1c[nH]c2ccccc12)C(=O)N[C@@H](CO)C(=O)N1CCC[C@H]1C(=O)N[C@H](Cc1c[nH]c2ccccc12)C(=O)N[C@H](C(=O)N[C@@H](C)C(=O)N[C@@H](CS)C(N)=O)[C@@H](C)O [Compound R2228, Ac-CNYWSPwTAC-NH2] (Ac-CNYWSP[dW]TAC-NH2) on human plasma kallikrein (Homo sapiens)?
Result: < 4.97

---
Q: Hi! What's the reported pIC50 for C[C@@H]1NC(=O)C2(CCCC2)NC(=O)CCSCc2cccc(c2)CSC[C@@H](C(=O)N[C@@H](CCCNC(=N)N)C(=O)N[C@H](C(N)=O)C(C)(C)C)NC(=O)[C@H](C2CCCCC2)NC1=O [Compound R2169] ([Mpa][Ac5c]A[Chg]CR[Tle]-NH2; linker 1-5 via mXylylene) on human plasma kallikrein (Homo sapiens)?
Result: 8.72

====

- system_tested: Factor XIa (Homo sapiens, UniProt P03951)
- Sequence (P03951 19-387 limits assumed): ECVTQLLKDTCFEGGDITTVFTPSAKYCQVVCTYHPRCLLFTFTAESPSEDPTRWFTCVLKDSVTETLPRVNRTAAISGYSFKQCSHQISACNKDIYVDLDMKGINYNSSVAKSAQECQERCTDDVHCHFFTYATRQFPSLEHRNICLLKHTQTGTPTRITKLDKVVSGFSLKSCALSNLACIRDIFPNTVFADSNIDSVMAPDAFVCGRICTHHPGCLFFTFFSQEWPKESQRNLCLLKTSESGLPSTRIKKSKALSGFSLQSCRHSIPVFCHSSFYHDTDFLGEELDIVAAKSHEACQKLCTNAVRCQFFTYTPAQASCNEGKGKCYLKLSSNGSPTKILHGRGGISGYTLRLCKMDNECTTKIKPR
- Sequence (P03951 388-625 limits assumed): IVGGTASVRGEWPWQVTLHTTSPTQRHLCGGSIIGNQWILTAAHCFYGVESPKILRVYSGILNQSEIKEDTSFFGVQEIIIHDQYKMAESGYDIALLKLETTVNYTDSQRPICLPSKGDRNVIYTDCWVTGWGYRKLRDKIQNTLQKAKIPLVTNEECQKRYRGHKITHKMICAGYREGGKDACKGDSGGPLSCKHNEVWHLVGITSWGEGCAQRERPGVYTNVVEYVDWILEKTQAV
pIC50: −log10 of the molar value. Numbered stars: 1 amine (or outer) side, 2 acyl side, 3 side chain; on linkers, the order of the positions; unused ones are H or OH. Bridge positions count the residues as written; N and C are the ends. Square brackets hold non-standard residues; d marks the D form. Peptide text beside a SMILES is read from it. mXylylene = c1cc(C[*:1])cc(C[*:2])c1; Phg = N[C@H](C(=O)O)c1ccccc1
Consider the following compounds and their measured pIC50 readings.

Q: Item under review: CC[C@H](C)[C@@H]1NC(=O)[C@H](CO)NC(=O)[C@@H](C)NC(=O)[C@@H](NC(C)=O)CSCc2cccc(c2)CSC[C@@H](C(=O)N[C@@H](CCCNC(=N)N)C(=O)N[C@H](C(N)=O)C(C)C)NC1=O [Compound R2047, [mXylyl(1,5)]Ac-C-a-SICRV-NH2] (Ac-C[dA]SICRV-NH2; linker 1-5 via mXylylene) . Reported pIC50?
Result: < 4.86

Query compound follows.
Q: Item under review: CSCC[C@H](N)C(=O)N[C@H]1CSCc2cccc(c2)CSC[C@@H](C(=O)N[C@@H](CCCNC(=N)N)C(=O)N[C@H](C(N)=O)C(C)C)NC(=O)[C@H](c2ccccc2)NC(=O)[C@H](CO)NC(=O)[C@H](CCC(=O)O)NC1=O [Compound R2012, [mXylyl(2,6)]MCES-Phg-CRV-NH2] (H-MCES[Phg]CRV-NH2; linker 2-6 via mXylylene; N-terminus assumed) . Reported pIC50?
Result: < 5.08

====

- system_tested: human plasma kallikrein (Homo sapiens, UniProt P03952)
- Construct: purchased Enzyme Research Laboratories HPKa 1303
- Sequence (P03952 20-390 limits assumed): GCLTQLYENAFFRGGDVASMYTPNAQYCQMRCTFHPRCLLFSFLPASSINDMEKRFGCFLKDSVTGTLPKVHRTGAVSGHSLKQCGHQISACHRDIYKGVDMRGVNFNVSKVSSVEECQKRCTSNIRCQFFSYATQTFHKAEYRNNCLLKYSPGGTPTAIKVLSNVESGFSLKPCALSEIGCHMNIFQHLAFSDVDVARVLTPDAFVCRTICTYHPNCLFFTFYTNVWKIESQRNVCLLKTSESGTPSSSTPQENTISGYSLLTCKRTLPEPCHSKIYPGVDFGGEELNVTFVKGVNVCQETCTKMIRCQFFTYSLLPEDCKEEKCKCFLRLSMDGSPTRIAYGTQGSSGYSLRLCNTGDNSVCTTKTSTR
- Sequence (P03952 391-638 limits assumed): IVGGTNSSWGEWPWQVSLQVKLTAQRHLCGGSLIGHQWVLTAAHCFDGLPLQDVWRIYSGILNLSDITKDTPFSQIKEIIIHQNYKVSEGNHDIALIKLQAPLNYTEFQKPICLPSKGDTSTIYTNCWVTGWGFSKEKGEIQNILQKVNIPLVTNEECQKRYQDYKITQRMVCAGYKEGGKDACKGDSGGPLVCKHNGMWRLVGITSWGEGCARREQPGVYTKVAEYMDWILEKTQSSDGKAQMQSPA
- protocol_details: Enzyme inhibition assay (fluorogenic substrate H-Pro-Phe-Arg-AMC)
- Format: biochemical
- particulars: Kallikrein inhibitory activity; 1 nM activated human kallikrein, 500 μM H-Pro-Phe-Arg-AMC, 1 hour room temperature; read-out: Avg. IC50
Numbered stars: 1 amine (or outer) side, 2 acyl side, 3 side chain; on linkers, the order of the positions; unused ones are H or OH. Bridge positions count the residues as written; N and C are the ends. Square brackets hold non-standard residues; d marks the D form. Peptide text beside a SMILES is read from it. X2 = O=C(Cc1cccc(C[*:2])c1)[*:1]; Chg = N[C@H](C(=O)O)C1CCCCC1; Tle = CC(C)(C)[C@H](N)C(=O)O
observable: pIC50
To interpret pIC50, take it as minus log10 of a concentration measured in moles per litre.

Q: Item under review: CC(C)(C)[C@H](NC(=O)[C@H](CCCNC(=N)N)NC(=O)[C@@H]1CSCc2cccc(c2)CC(=O)N[C@@H](CCC(=O)O)C(=O)N2CCC[C@H]2C(=O)N[C@@H](C2CCCCC2)C(=O)N1)C(N)=O [Compound R2264] (EP[Chg]CR[Tle]-NH2; linker N-4 via X2) . Reported pIC50?
Result: 5.96
